- System: SNB-19
- RUN_DESCRIPTION: NCI tumour cell line growth inhibition, 48 h
Calls of active or inactive are those of the source. No stated cut-off is given here; in the data, active = GI50 up to about 1.1 µM and inactive = higher.
Tick one outcome: active, inactive

What call does the record list for COc1cccc(NCC(=O)Nn2c(-c3ccccc3)nc3ccccc3c2=O)c1 ?
inactive

What call does the record list for CC(C)c1c(O[Si](C(C)C)(C(C)C)C(C)C)c2c3c(ccc4c3c1OC4(C)C)C(C)CC2 (stereo unspecified) ?
inactive

What call does the record list for CCOC(=O)N1C=NC23C(c4ccccc4)C(c4ccccc4)C12C(=O)N(C)C(=O)N3C (stereo unspecified) ?
inactive

What call does the record list for CNC(=O)ON(C(C)=O)C(=O)NC [CARACEMIDE] ?
inactive

What call does the record list for CCCCNC(=O)N/C=C1\C(=O)Oc2ccccc2C1=O ?
inactive

What call does the record list for CCOC(=O)/C(=C\c1ccc(N(CCC#N)CCC#N)cc1)NC(=O)c1cc([N+](=O)[O-])ccc1Cl ?
inactive

What call does the record list for O=c1cccccc1NCCCCCCCCNc1cccccc1=O ?
inactive

What call does the record list for COc1ccc(N[S+]([O-])CCc2ccccc2)cc1 (stereo unspecified) ?
inactive

What call does the record list for C/C(=N/NC(=S)N1CCCCC1)c1ccccc1O ?
inactive

What call does the record list for O=C1C(c2ccc([N+](=O)[O-])cc2)=[N+]([O-])c2ccccc21 ?
active

What call does the record list for COc1ccc2oc3c(C)cc4c(OC)nnc(OC)c4c3c2c1 ?
inactive
